Record set: Ki | Adenosine receptor A1 (Rattus norvegicus) | literature, multiple sources.
Threshold 3 nM. Ki below it: Y. Ki at it or above: N.

Known results for compounds:
OC[C@H]1O[C@@H](n2cnc3c(NN4CCC(Sc5ccccc5)CC4)nc(Cl)nc32)[C@H](O)[C@@H]1O; Y
CCC(CC)Nc1ncnc2c1ncn2C1O[C@H](CO)[C@@H](O)[C@H]1O (some centres undefined); Y
OC[C@H]1O[C@@H](n2cnc3c(NC4CCCCC4)ccnc32)[C@H](O)[C@@H]1O; N
Cn1c(=O)[nH]c2c(ncn2C2O[C@H](CO)[C@@H](O)[C@H]2O)c1=N (some centres undefined); N
Nc1nc2c(cnn2CCCc2ccc3c(c2)OCO3)c2nc(-c3ccco3)nn12; N
Nc1nc(C#CC(O)c2ccccc2)nc2c1ncn2[C@@H]1O[C@H](CO)[C@@H](O)[C@H]1O (some centres undefined); N

// query Lab log: compare recorded Ki with 3 nM; is it strictly lower for OC[C@@]12C[C@@H]1[C@@H](n1cnc3c(NC4CCCC4)ncnc31)[C@H](O)[C@@H]2O ?
// result N

// query Hello, I'm reviewing records and need to know if Ki of CCNC(=O)[C@H]1OC(n2cnc3c(N)nc(C#Cc4ccncc4)nc32)[C@H](O)[C@@H]1O (some centres undefined) is below 3 nM. Could you check?
// result N

// query # check: Ki < 3 nM for Nc1nc(N2CCN(Cc3ccccc3)CC2)nc2nc(-c3ccco3)nn12
// result N

---

Listed below are molecules with Ki for Adenosine receptor A1 (Rattus norvegicus, UniProt P25099), each taken from published literature.
Biological target: Adenosine receptor A1 (Rattus norvegicus, UniProt P25099)
Sequence (P25099 whole entry): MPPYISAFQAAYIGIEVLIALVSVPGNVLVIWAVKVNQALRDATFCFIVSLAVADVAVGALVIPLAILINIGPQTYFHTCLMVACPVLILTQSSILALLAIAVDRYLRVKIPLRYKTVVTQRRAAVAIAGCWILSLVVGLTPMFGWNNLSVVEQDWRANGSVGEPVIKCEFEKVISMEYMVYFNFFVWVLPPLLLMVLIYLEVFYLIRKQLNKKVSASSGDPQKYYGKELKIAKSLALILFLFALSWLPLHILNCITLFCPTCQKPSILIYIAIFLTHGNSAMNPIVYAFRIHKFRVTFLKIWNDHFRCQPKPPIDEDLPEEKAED
Field format: number, assumed µM, no unit text.

CC(Cc1ccccc1)Nc1cc(Cl)nc2c1ncn2C1O[C@H](CO)[C@@H](O)[C@H]1O (stereo not given in full); 0.018
CS(=O)(=O)N(c1nc2ccccc2n2c(=O)n(-c3ccccc3)nc12)S(C)(=O)=O; 0.132
C[C@@H](N)C(=O)Nc1nc2ccc(Cl)cc2c2nc(-c3ccco3)nn12; 0.193
OC[C@H]1O[C@@H](n2cnc3c(NC4CCCC4)ccnc32)[C@H](O)[C@@H]1O; 0.0075
Cc1c(C)n([C@H](C)c2ccccc2)c2nc(-c3ccccc3)nc(O)c12; 2.98

// query Look up and report Ki, with Adenosine receptor A1 (Rattus norvegicus, UniProt P25099) as system, for O=C(O)CCCC(=O)Nc1nc2ccc(Cl)cc2c2nc(-c3ccco3)nn12
// result 0.045

// query Fill in: Ki on Adenosine receptor A1 (Rattus norvegicus, UniProt P25099), entry Cn1c(=O)c2c(nc3n2CCCN3CCOc2ccc(Cl)cc2)n(C)c1=O
// result 4.22

// query Under Adenosine receptor A1 (Rattus norvegicus, UniProt P25099), report Ki for CCCn1c(=O)c2c(nc(/C=C/c3ccc(OC)c(OC)c3)n2C)n(CCC)c1=O
// result 0.93
